Known MIC of a selection of molecules
# System: Pseudomonas aeruginosa
# test.details: Antibacterial activity against carbapenem resistant Pseudomonas aeruginosa clinical isolate 19-3 assessed as inhibition of bacterial growth incubated for 18 to 24 hrs by broth microdilution method
# Type: functional
# study.conditions: time 18-24 hrs
Lab book: enter the figure in mg/L, no units written.

Some molecules with recorded MIC:
>  <smiles.input>
CCCCCCCCCC(=O)N[C@H](CCN)C(=O)N[C@H]1CCNC(=O)[C@H]([C@@H](C)O)NC(=O)[C@H](CCN)NC(=O)[C@H](CCN)NC(=O)[C@H](CC(C)C)NC(=O)[C@@H](Cc2ccc(C)cc2)NC(=O)[C@H](CCN)NC1=O

>  <MIC (mg/L)>
1

$$$$
>  <smiles.input>
CCCCCCCCCC(=O)N[C@H](CCN)C(=O)N[C@H]1CCNC(=O)[C@H](CO)NC(=O)[C@H](CCN)NC(=O)[C@H](CCN)NC(=O)[C@H](Cc2ccccc2)NC(=O)[C@@H](CC(C)C)NC(=O)[C@H](CCN)NC1=O

>  <MIC (mg/L)>
16

$$$$

Proceed to the following item.
Could you tell me which MIC is on file for CCCCCCC[C@H](O)CC(=O)N[C@H](CCN)C(=O)N[C@H]1CCNC(=O)[C@H](CC(C)C)NC(=O)[C@H](CCN)NC(=O)[C@H](CCN)NC(=O)[C@H](CC(C)C)NC(=O)[C@@H](CC(C)C)NC(=O)[C@H](CCN)NC1=O ?
4
